Some molecules, each annotated with its measured pIC50.
test.target: human TrkA (Homo sapiens)
Construct: purchased Lifetechnologies PV3144
Sequence (P04629 33-796): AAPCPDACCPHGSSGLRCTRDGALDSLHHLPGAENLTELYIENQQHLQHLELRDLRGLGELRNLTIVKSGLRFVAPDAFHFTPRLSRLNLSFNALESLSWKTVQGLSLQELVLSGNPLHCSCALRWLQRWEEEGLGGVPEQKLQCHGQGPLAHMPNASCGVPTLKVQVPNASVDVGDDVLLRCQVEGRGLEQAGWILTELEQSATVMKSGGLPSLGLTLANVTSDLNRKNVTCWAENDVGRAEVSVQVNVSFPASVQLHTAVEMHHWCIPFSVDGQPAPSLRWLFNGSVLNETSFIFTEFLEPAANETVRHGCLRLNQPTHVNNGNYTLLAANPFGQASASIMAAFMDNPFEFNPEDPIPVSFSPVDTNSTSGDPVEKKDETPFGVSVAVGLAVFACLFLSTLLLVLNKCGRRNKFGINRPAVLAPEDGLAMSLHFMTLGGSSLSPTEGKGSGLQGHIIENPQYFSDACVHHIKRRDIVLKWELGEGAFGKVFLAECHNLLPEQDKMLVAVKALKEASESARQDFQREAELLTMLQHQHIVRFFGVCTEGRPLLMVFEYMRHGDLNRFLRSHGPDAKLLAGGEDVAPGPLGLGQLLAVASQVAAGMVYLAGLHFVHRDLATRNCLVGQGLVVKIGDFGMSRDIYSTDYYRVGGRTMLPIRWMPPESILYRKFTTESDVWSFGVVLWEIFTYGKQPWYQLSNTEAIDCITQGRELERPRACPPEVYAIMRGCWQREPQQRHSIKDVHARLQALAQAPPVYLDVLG
run.description: Test Example 2: Human TrkA Inhibition Assay
Assay type: biochemical
condition.description: Test Example 2; human TrkA 2.5 nmol/L, ATP 500 μmol/L, 90 min at room temperature; read-out: TrkA inhibitory activity IC50
On this scale, pIC50 is minus log10 of a concentration expressed in M (mol/L).

COCCN1C[C@@H](CC(=O)Nc2c(C)c(-c3cnn(C)c3)nn2-c2ccccc2)[C@H](c2ccc(F)c(F)c2)C1 (racemic)	6.84
COCCN1C[C@@H](NC(=O)Nc2c(C)c(-c3cnn(C)c3)nn2-c2ccccc2)[C@](C)(c2ccccc2)C1 (racemic)	6.92

Turning now to a further molecule:
COCCN1C[C@@H](NC(=C[N+](=O)[O-])Nc2c(C)c(-c3cnn(C)c3)nn2-c2ccccc2)[C@H](c2ccccc2)C1 yielded pIC50 of 5.74
